study-target: cloned human 5-HT1A receptors (Homo sapiens)
Construct: expressed in transfected cells
Sequence (P08908 whole entry): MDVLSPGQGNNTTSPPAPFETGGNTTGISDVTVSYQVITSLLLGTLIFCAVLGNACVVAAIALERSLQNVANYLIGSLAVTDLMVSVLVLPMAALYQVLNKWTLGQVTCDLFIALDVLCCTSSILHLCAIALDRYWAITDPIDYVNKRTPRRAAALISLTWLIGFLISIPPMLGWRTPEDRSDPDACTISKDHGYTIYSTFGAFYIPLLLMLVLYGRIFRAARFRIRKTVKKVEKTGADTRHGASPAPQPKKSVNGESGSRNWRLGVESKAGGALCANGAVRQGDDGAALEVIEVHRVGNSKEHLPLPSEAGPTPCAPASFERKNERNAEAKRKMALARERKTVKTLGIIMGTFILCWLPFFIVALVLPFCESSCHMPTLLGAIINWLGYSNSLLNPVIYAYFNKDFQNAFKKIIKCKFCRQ
test-summary: 35S-GTPγS binding assay, antagonist activity at 5-HT1A receptors
Type: biochemical
cond: potency in reversing the effects of the standard agonist 8-OHDPAT; read-out: 5-HT1A Receptor Affinity IC50 (nM) (Imax): IC50
endpoint: IC50 (nM)

Illustrative cases are given below, each with its answer.
- compound: "Cc1ccc2c3c(ccc2n1)OC[C@H](CN1CCC(Cn2ccc4ccc(F)cc42)CC1)O3"
  endpoint: "IC50"
  assay-value: 242
- compound: "Cc1ccc2c3c(ccc2n1)OC[C@H](CN1CC(CCn2ccc4ccc(C#N)cc42)C1)O3"
  endpoint: "IC50"
  assay-value: 251
- compound: "Cc1ccc2c3c(ccc2n1)OCC(CN1CC(CCn2ccc4ccc(F)cc42)C1)O3 (centres unmarked)"
  endpoint: "IC50"
  assay-value: 343

(I) Cc1ccc2c3c(ccc2n1)OCC(CN1CC(Cc2c[nH]c4ccc(F)cc24)C1)O3 (centres unmarked)
(II) Cc1ccc2c3c(ccc2n1)OCC(CN1CCCC(Cc2c[nH]c4cc(F)ccc24)C1)O3 (centres unmarked)
Field: entry with larger IC50 (options I / II ). The response must carry the label of the picked entry.
II
(II: 666 nM, I: 59.5 nM)

(P) Cc1ccc2c3c(ccc2n1)OC[C@H](CN1CCC(Cn2ccc4ccc(C#N)cc42)CC1)O3
(Q) Cc1ccc2c3c(ccc2n1)OCC(CN1CCCC(Cc2c[nH]c4ccc(F)cc24)C1)O3 (centres unmarked)
Field: entry with larger IC50 (options P / Q ). The response must carry the label of the picked entry.
Q

(P) Cc1ccc2c3c(ccc2n1)OC[C@H](CN1CC(Cc2cn(C)c4ccc(F)cc24)C1)O3
(Q) CCc1ccc2c3c(ccc2n1)OC[C@H](CN1CCC(Cn2ccc4ccc(F)cc42)CC1)O3
From the items above, decide which of P and Q has the lower IC50 reading. The response must carry the label of the picked entry.
P
(P: 34.5 nM, Q: 208 nM)

====

Counter-ions that a name gives are not always drawn.
endpoint: melting point

Illustrative cases are given below, each with its answer.
- compound: "Cc1ccc2c3c(ccc2n1)OCC(CN1CC(Cc2c[nH]c4ccc(F)cc24)C1)O3 (stereo not drawn) (as salt: hydrochloride) [Example 1]"
  melting point: "125 °C (dec.)"
- compound: "Cc1ccc2c3c(ccc2n1)OCC(CN1CCCC(Cc2c[nH]c4ccc(F)cc24)C1)O3 (stereo not drawn) (as salt: hydrochloride) [Example 2]"
  melting point: "68 °C (dec.)"

What does the data say about its melting point? Entry: Cc1ccc2c3c(ccc2n1)OC[C@H](CN1CCC(Cn2ccc4ccc(C#N)cc42)CC1)O3 (as salt: fumarate) [Example 8]
178 to 180 °C

====

study-target: human 5-HT1A receptors (Homo sapiens)
Sequence (P08908 whole entry): as above
endpoint: Ki (nM)

Illustrative cases are given below, each with its answer.
- molecule: "Cc1ccc2c3c(ccc2n1)OCC(CN1CC(Cn2ccc4ccc(F)cc42)C1)O3 (stereo not shown) [Example 9]"
  Ki [nM]: 55
- molecule: "Cc1ccc2c3c(ccc2n1)OCC(CN1CC(Cc2c[nH]c4ccccc24)C1)O3 (stereo not shown) [Example 4]"
  Ki [nM]: 9.2

(1) Cc1ccc2c3c(ccc2n1)OCC(CN1CCCC(Cc2c[nH]c4ccc(F)cc24)C1)O3 (stereo not shown) [Example 2]
(2) Cc1ccc2c3c(ccc2n1)OC[C@H](CN1CC(Cc2cn(C)c4ccc(F)cc24)C1)O3 [Example 5]
Field: entry with larger Ki (options 1 / 2 ). The response must carry the label of the picked entry.
2
(2: 16.7 nM, 1: 3.3 nM)
